System: NIH-3T3
Settings: mouse, 72 h
readout: IC50

Looking up Nc1ncnc2nc[nH]c12 [Adenine, reference compound] , I see its IC50 listed as > 167 µM

----------
System: B10A.4
Test: Calcein AM cytotoxicity, B10A.4 (second column)
Details: read-out: Cytotoxicity IC50, B10A.4, 72 hours incubation, highest concentration […]
readout: IC50

>  <compound>
c1coc(CNc2ncnc3nc[nH]c23)c1 [Kinetin, N^6-furfuryladenine, reference compound]

>  <assay-target>
B10A.4

>  <readout>
IC50

>  <endpoint-value>
164 µM

$$$$
>  <compound>
CC(C)=CCNc1nc(N(C)C)nc2c1ncn2C1CCO1 (stereo not drawn)

>  <assay-target>
B10A.4

>  <readout>
IC50

>  <endpoint-value>
> 167 µM

$$$$

The compound listed as CCN(CC)c1nc(NCC=C(C)C)c2ncn(C3CCO3)c2n1 (stereo not drawn) shows IC50 equal to > 167 µM

----------
BJ (human foreskin fibroblasts): reported IC50 for various compounds.

Below are worked cases with known answers.
>  <compound>
C/C(=C\CNc1nc(NCCN(C)C)nc2c1ncn2C1CCCO1)CO (stereo not drawn)

>  <endpoint-value>
> 167 µM

$$$$
>  <compound>
CCNc1nc(NCc2ccc(OC)o2)c2ncn(C3CCCO3)c2n1 (stereo not drawn)

>  <endpoint-value>
> 167 µM

$$$$

Next compound, please.
Oc1ccccc1CNc1ncnc2nc[nH]c12 [ortho-topolin, reference compound] has a reported IC50 of 108 µM

----------
For BJ (human foreskin fibroblasts), measured IC50 is reported for the entries below.

>  <molecule>
CCN(CC)c1nc(NCCC(C)CO)c2ncn(C3CCCO3)c2n1 (stereo not drawn) [Compound 108]

>  <readout>
IC50

>  <endpoint-value>
> 167 µM

$$$$
>  <molecule>
CCN(CC)c1nc(NCC=C(C)C)c2ncn(C3CCCO3)c2n1 (stereo not drawn) [Compound 93]

>  <readout>
IC50

>  <endpoint-value>
> 167 µM

$$$$
>  <molecule>
Oc1cccc(CNc2ncnc3nc[nH]c23)c1 [meta-topolin, reference compound]

>  <readout>
IC50

>  <endpoint-value>
166 µM

$$$$
>  <molecule>
CC(C)=CCNc1ncnc2nc[nH]c12 [isopentenyladenine, reference compound]

>  <readout>
IC50

>  <endpoint-value>
134 µM

$$$$
>  <molecule>
CCN(CC)c1nc(NCc2ccc(OC)cc2)c2ncn(C3CCCO3)c2n1 (stereo not drawn) [Compound 87]

>  <readout>
IC50

>  <endpoint-value>
> 167 µM

$$$$

Hey, quick one: what's IC50 for each of these?
1. CCNc1nc(NC/C=C(/C)CO)c2ncn(C3CCCO3)c2n1 (stereo not drawn) [Compound 101]
2. CNc1nc(NCc2cc(C)co2)c2ncn(C3CCCO3)c2n1 (stereo not drawn) [Compound 39]
3. COc1coc(CNc2nc(NCCN(C)C)nc3c2ncn3C2CCCO2)c1 (stereo not drawn) [Compound 58]
4. CCNc1nc(NCc2ccc(OC)cc2)c2ncn(C3CCCO3)c2n1 (stereo not drawn) [Compound 85]

1: > 167 µM; 2: > 167 µM; 3: > 167 µM; 4: > 167 µM

----------
Assay: Radical scavenging activity determined by ORAC
Conditions: relative to trolox; Mean ± SD (n = 3)
readout: ORAC (compound/trolox)
Answers are plain numbers.

>  <compound>
CN(C)c1nc(NCc2ccc(O)cc2)c2ncn(C3CCCCO3)c2n1 (stereo not drawn) [Compound 160]

>  <ORAC (compound/trolox)>
0.728

$$$$
>  <compound>
CNc1nc(NCc2ccc(C)o2)c2ncn(C3CCCCO3)c2n1 (stereo not drawn) [Compound 128]

>  <ORAC (compound/trolox)>
0.461

$$$$

Turning now to a further record.
The compound CN(C)c1nc(NCc2ccc(O)cc2)c2ncn(C3CCCO3)c2n1 (stereo not drawn) [Compound 76] showed ORAC (compound/trolox) equal to 0.192

----------
Assay: in vivo
Conditions: both sexes, Wistar, rat, sc
readout: MTD

Note to self: MTD recorded for CN(C)c1nc(NCc2ccco2)c2ncn(C3CCCCO3)c2n1 (stereo not shown) [Compound 114] was > 100 mg/kg

----------
Tested on: B10A.4
Conditions: mouse, 72 h
pIC50: −log10 of the molar value.
readout: pIC50

The compound identified as Nc1ncnc2nc[nH]c12 [Adenine, reference compound] registered its pIC50 at < 3.78
